System: A549
experiment_description: Antiproliferative activity against human A549 cells after 48 hrs by CCK8 assay
Type: functional, cell-based
run_parameters: A549, 48 h
IC50 overview
observable: IC50 (µM)

INSERT INTO results (mol_smiles, study_target, observable, unit_abbrev, reading_qualifier, measured_result) VALUES
  ('O=c1cc(C#CC2(O)CCCCC2)c2ccc(N3CCC(NCCc4ccccc4)CC3)cc2o1', 'A549', 'IC50', 'µM', '=', 2.48),
  ('O=c1cc(C#Cc2cccc(Cl)c2)c2ccc(N3CCC(NCCc4ccccc4)CC3)cc2o1', 'A549', 'IC50', 'µM', '=', 3.1),
  ('O=c1cc(-c2ccc(Oc3ccccc3)cc2)c2ccc(N3CCC(NCCc4ccccc4)CC3)cc2o1', 'A549', 'IC50', 'µM', '=', 3.83),
  ('Cc1cc(-c2cc(=O)oc3cc(N4CCC(NCCc5ccccc5)CC4)ccc23)ccc1C(F)(F)F', 'A549', 'IC50', 'µM', '=', 3.09),
  ('O=c1cc(C#Cc2cccnc2)c2ccc(N3CCC(NCCc4ccccc4)CC3)cc2o1', 'A549', 'IC50', 'µM', '=', 3.35),
  ('O=c1cc(-c2c[nH]nn2)c2ccc(N3CCC(NCCc4ccccc4)CC3)cc2o1', 'A549', 'IC50', 'µM', '>', 30),
  ('O=c1cc(C#CC2CCCCC2)c2ccc(N3CCC(NCCc4ccccc4)CC3)cc2o1', 'A549', 'IC50', 'µM', '=', 2.99),
  ('O=c1cc(-c2cnc(O)nc2O)c2ccc(N3CCC(NCCc4ccccc4)CC3)cc2o1', 'A549', 'IC50', 'µM', '>', 30),
  ('Clc1ccc(CCNC2CCN(Cc3ccccc3)CC2)c(Cl)c1', 'A549', 'IC50', 'µM', '=', 5.55),
  ('O=c1cc(-c2ccc(-c3ccccc3)cc2)c2ccc(N3CCC(NCCc4ccccc4)CC3)cc2o1', 'A549', 'IC50', 'µM', '=', 2.14),
  ('Cc1ccc(-c2cc(=O)oc3cc(N4CCC(NCCc5ccccc5)CC4)ccc23)cc1C', 'A549', 'IC50', 'µM', '=', 3.77);

###

experiment_description: Antiproliferative activity against HEK293T cells after 48 hrs by CCK8 assay
Assay type: cell-based, HEK-293T
run_parameters: human, read-out: LC50
Below, each entry is listed with its recorded CC50 at 48 h.
observable: CC50 at 48 h (µM)

INSERT INTO results (mol_smiles, unit_abbrev, measured_result) VALUES
  ('O=c1cc(-c2ccc(-c3ccccc3)cc2)c2ccc(N3CCC(NCCc4ccccc4)CC3)cc2o1', 'µM', 12.9),
  ('NS(=O)(=O)OC[C@@H]1C[C@@H](n2ccc3c(N[C@@H]4CCc5ccccc54)ncnc32)C[C@@H]1O', 'µM', 6.17),
  ('CC(C)C[C@H](NC(=O)[C@H](Cc1ccccc1)NC(=O)c1cnccn1)B(O)O', 'µM', 0.016);

###

experiment_description: Selectivity index, ratio of IC50 for HEK293T cells to IC50 for human AGS cells
Assay type: toxicity
run_parameters: HEK293T cells versus AGS cells, read-out: Ratio IC50
observable: selectivity ratio

INSERT INTO assay_data (mol_smiles, measured_result) VALUES
  ('O=c1cc(-c2ccc(-c3ccccc3)cc2)c2ccc(N3CCC(NCCc4ccccc4)CC3)cc2o1', '14 to 18');

###

System: AGS
experiment_description: Antiproliferative activity against human AGS cells after 48 hrs by CCK8 assay
Assay type: functional, cell-based
observable: IC50 (nM)

INSERT INTO assay_data (mol_smiles, study_target, observable, unit_abbrev, reading_qualifier, measured_result) VALUES
  ('O=c1cc(-c2c[nH]nn2)c2ccc(N3CCC(NCCc4ccccc4)CC3)cc2o1', 'AGS', 'IC50', 'nM', '>', 30000),
  ('O=c1cc(-c2ccc(-c3ccccc3)cc2)c2ccc(N3CCC(NCCc4ccccc4)CC3)cc2o1', 'AGS', 'IC50', 'nM', '=', 760),
  ('O=c1cc(C#Cc2cccc(Cl)c2)c2ccc(N3CCC(NCCc4ccccc4)CC3)cc2o1', 'AGS', 'IC50', 'nM', '=', 1420),
  ('O=c1cc(C#CC2CCCCC2)c2ccc(N3CCC(NCCc4ccccc4)CC3)cc2o1', 'AGS', 'IC50', 'nM', '=', 1130),
  ('O=c1cc(-c2ccc(Oc3ccccc3)cc2)c2ccc(N3CCC(NCCc4ccccc4)CC3)cc2o1', 'AGS', 'IC50', 'nM', '=', 1260);

###

System: AGS
experiment_description: Antiproliferative activity against human AGS cells after 48 hrs by CCK8 assay
Assay type: functional, cell-based
Rule for this label: Satisfied means IC50 is less than 2000 nM; Not satisfied means IC50 is at least 2000 nM.

INSERT INTO results (mol_smiles, study_target, qualitative_label) VALUES
  ('Clc1ccc(CCNC2CCN(Cc3ccccc3)CC2)c(Cl)c1', 'AGS', 'Not satisfied'),
  ('Cc1ccc(-c2cc(=O)oc3cc(N4CCC(NCCc5ccccc5)CC4)ccc23)cc1C', 'AGS', 'Satisfied'),
  ('O=c1cc(C#CC2(O)CCCCC2)c2ccc(N3CCC(NCCc4ccccc4)CC3)cc2o1', 'AGS', 'Satisfied'),
  ('Cc1cc(-c2cc(=O)oc3cc(N4CCC(NCCc5ccccc5)CC4)ccc23)ccc1C(F)(F)F', 'AGS', 'Satisfied'),
  ('O=c1cc(C#Cc2cccnc2)c2ccc(N3CCC(NCCc4ccccc4)CC3)cc2o1', 'AGS', 'Satisfied'),
  ('O=c1cc(-c2cnc(O)nc2O)c2ccc(N3CCC(NCCc4ccccc4)CC3)cc2o1', 'AGS', 'Not satisfied');

###

hemolysis at 1 h, 100 µM values for the compounds below.
experiment_description: Hemolytic activity against rabbit erythrocytes assessed as hemolysis at 100 uM measured after 1 hr
Type: ADME, cell-based, Oryctolagus cuniculus, Erythrocyte
run_parameters: read-out: Activity
observable: hemolysis at 1 h, 100 µM

INSERT INTO results (mol_smiles, observable, measured_result) VALUES
  ('O=c1cc(C#Cc2cccc(Cl)c2)c2ccc(N3CCC(NCCc4ccccc4)CC3)cc2o1', 'hemolysis at 1 h, 100 µM', '< 10%'),
  ('NS(=O)(=O)OC[C@@H]1C[C@@H](n2ccc3c(N[C@@H]4CCc5ccccc54)ncnc32)C[C@@H]1O', 'hemolysis at 1 h, 100 µM', '5.8%'),
  ('O=c1cc(C#Cc2cccnc2)c2ccc(N3CCC(NCCc4ccccc4)CC3)cc2o1', 'hemolysis at 1 h, 100 µM', '< 10%'),
  ('O=c1cc(-c2ccc(-c3ccccc3)cc2)c2ccc(N3CCC(NCCc4ccccc4)CC3)cc2o1', 'hemolysis at 1 h, 100 µM', '< 10%');

###

experiment_description: Selectivity index, ratio of IC50 for human LO2 cells to IC50 for human AGS cells
Format: toxicity
run_parameters: LO2 cells versus AGS cells, read-out: Ratio IC50
observable: selectivity ratio

INSERT INTO assay_data (mol_smiles, measured_result) VALUES
  ('O=c1cc(-c2ccc(-c3ccccc3)cc2)c2ccc(N3CCC(NCCc4ccccc4)CC3)cc2o1', '14 to 18');

###

experiment_description: Antiproliferative activity against HUVEC after 48 hrs by CCK8 assay
Format: cell-based
run_parameters: human, read-out: LC50
observable: CC50 at 48 h

INSERT INTO measurements (mol_smiles, measured_result) VALUES
  ('NS(=O)(=O)OC[C@@H]1C[C@@H](n2ccc3c(N[C@@H]4CCc5ccccc54)ncnc32)C[C@@H]1O', '4.79 µM'),
  ('CC(C)C[C@H](NC(=O)[C@H](Cc1ccccc1)NC(=O)c1cnccn1)B(O)O', '0.018 µM'),
  ('O=c1cc(-c2ccc(-c3ccccc3)cc2)c2ccc(N3CCC(NCCc4ccccc4)CC3)cc2o1', '10.7 µM');
